System: P388 leukemia ip, CD2F1 mice, survival T/C
Assay: NCI In Vivo Anticancer Drug Screen. Data for tumor model P388 Leukemia (intraperitoneal) in CD2F1 (CDF1) mice
Conditions: endpoint: median survival time; dose: 200.0 mg/kg/injection; schedule: Q01DX009 (ip); vehicle: saline; higher = longer survival
Inconclusive results and toxic doses are left out.
Experimental Endpoint: T/C

> print(dat)
                                    compound   recorded.result
 1  O=[N+]([O-])c1ccc(Sc2nccc(Cl)n2)c([N+](=O)[O-])c1  104 % of control
 2  O=C1C=CC(=O)N1c1ccc2c(c1)oc(=O)c1ccccc12   99 % of control
 3  C/C(=N/NS(=O)(=O)c1ccc(C)cc1)C(=NO)/C(C)=N\NS(=O)(=O)c1ccc(C)cc1  101 % of control
 4         CCN(CC)c1ccc(/C=C(\C#N)C(N)=S)cc1  105 % of control
 5        CNC1=CC(=O)c2c(c3cc(O)ccc3n2C)C1=O  104 % of control
 6             C=CCNC(=S)NCCN(CCO)C(=S)NCC=C   98 % of control
 7  O=S1(=O)C2C=CCCC1C=C2 (stereo unspecified)  100 % of control
 8       CCOC(=O)C(=O)Nc1ccc2cc(OC)ccc2c1C#N  106 % of control
 9          CCCCN1C(=O)CC(=O)N(c2ccccc2)C1=O   93 % of control
10        C=C1[C@@]2(O)CCCC[C@@H]2C[N+]1(C)C   95 % of control
11        Nc1oc([N+](=O)[O-])cc1[N+](=O)[O-]  118 % of control

---

The entries below are paired with their reported T/C.
System: P388 leukemia ip, CD2F1 mice, survival T/C
Assay: NCI In Vivo Anticancer Drug Screen. Data for tumor model P388 Leukemia (intraperitoneal) in CD2F1 (CDF1) mice
Conditions: endpoint: median survival time; dose: 100.0 mg/kg/injection; schedule: Q01DX005 (ip); vehicle: saline with Tween-80; higher = longer survival
Inconclusive results and toxic doses are left out. Peptide text beside a SMILES is read from it.
Experimental Endpoint: T/C

> print(dat)
                                    compound   recorded.result
 1                    COCN(C)N=Nc1ccc(Br)cc1  103 % of control
 2                    O=C(O)CCCC1CCCCC1.[Mn]  108 % of control
 3  CCC1(CC)OC(=O)C1Cl (configuration not stated)  113 % of control
 4  C=CC(O)C(C)C(=O)O (configuration not stated)   98 % of control
 5            Nc1cccc2c1C(=O)c1cccc(N)c1C2=O   91 % of control
 6  O=C1OC2CCCC1O2 (configuration not stated)  100 % of control
 7  CC12C(=O)OC(=O)C1CCc1c2ccc2ccccc12 (configuration not stated)  110 % of control
 8                 N/N=C1/C=Cc2cccc3cccc1c23   89 % of control
 9  CC(C)C(NC(=O)C(N)CCCN=C(N)N)C(=O)O (stereo not drawn) (H-Arg-Val-OH; configuration not given here)  100 % of control
10  O=C(N/C(=C/c1ccccc1)C(=O)N1CCN(C(=O)/C(=C\c2ccccc2)NC(=O)c2ccccc2)CC1)c1ccccc1   92 % of control
11  OC1(c2cc3ccccc3c3ccccc23)c2ccccc2-c2ccccc21  100 % of control
12  COc1cc2c(cc1OC)CN1CCc3cc(OC)c(OC)cc3C1C2 (configuration not stated)   94 % of control

---

System: P388 leukemia ip, CD2F1 mice, survival T/C
Experiment: NCI In Vivo Anticancer Drug Screen. Data for tumor model P388 Leukemia (intraperitoneal) in CD2F1 (CDF1) mice
Conditions: endpoint: median survival time; dose: 12.5 mg/kg/injection; schedule: Q01DX005 (ip); vehicle: saline with Tween-80; higher = longer survival
Protocol: The antitumor activity of compounds was measured in mice bearing transplantable tumors. Survival or tumor size were measured and the results are expressed as the measurement made in the treated group (T) divided by the measurement made in the vehicle treated control group (C). The tumor model used in this assay is P388 Leukemia (intraperitoneal) in CD2F1 (CDF1) mice
Inconclusive results and toxic doses are left out.
The entries below are paired with their reported T/C.
Experimental Endpoint: T/C

> print(dat)
                                   compound   recorded.result
1  CCn1c2ccccc2c2cc(NC(=S)NC(=O)c3cccs3)ccc21   86 % of control
2      C/C(=N\NC(=S)N1CC2CCC(CC2)C1)c1nccs1  124 % of control
3  CSC(SC)=C1C(=O)NC(Cc2ccccc2)C1=O (centres undefined)  112 % of control
4  CCC1C[N+]2=C(c3cc(OC)c(OC)cc3CC2)c2c1cc1n2CCc2cc(OC)c(OC)cc2-1 (centres undefined)  114 % of control
5  O=C1OC2C(O)COC2(N=Nc2ccc(Cl)cc2)/C1=N/Nc1ccccc1 (centres undefined)   93 % of control
6  CN(C)C1CC/C=C/CC/C=C/CC[C@H]1O (mixture of isomers)  100 % of control
7           N#CC(Br)(Br)C(=O)c1nc(N)nc(N)n1  104 % of control
8        Cc1cccc2c1nc(C)c1nc(-c3ccccc3)oc12   91 % of control
9  COc1ccc(-c2c(-c3ccccc3)oc(/N=C/c3ccccc3)c2-c2ccccc2)cc1  101 % of control

---

Test system: P388 leukemia ip, CD2F1 mice, survival T/C
Assay: NCI In Vivo Anticancer Drug Screen. Data for tumor model P388 Leukemia (intraperitoneal) in CD2F1 (CDF1) mice
Conditions: endpoint: median survival time; dose: 25.0 mg/kg/injection; schedule: Q01DX009 (ip); vehicle: water
Inconclusive results and toxic doses are left out. Rule for the calls: active = survival T/C of 150% or more; inactive = T/C below 125% in these data.
Outcome codes: Yes = active, No = inactive

> print(dat)
                                   compound                       experimental.system  answer.label
1                O/N=C/c1cccc[n+]1Cc1ccccc1  P388 leukemia ip, CD2F1 mice, survival T/C            No
2                 Cc1cccc(-[n+]2noc(N)n2)c1  P388 leukemia ip, CD2F1 mice, survival T/C           Yes
3  NCCC(=O)OC1CCCc2c(O)c3c(c(O)c21)C(=O)c1ccccc1C3=O (configuration not stated)  P388 leukemia ip, CD2F1 mice, survival T/C            No
4         COC(=O)/C=N/NS(=O)(=O)c1cccc(N)c1  P388 leukemia ip, CD2F1 mice, survival T/C            No
5                      C[n+]1cccc(C(N)=O)c1  P388 leukemia ip, CD2F1 mice, survival T/C            No
6  O=C(O)C1C2C(=O)N(CO)C(=O)C2C(C(=O)O)C2C3C(=O)N(CO)C(=O)C3C12 (configuration not stated)  P388 leukemia ip, CD2F1 mice, survival T/C            No
7  CCSC(C(O)C(O)C(O)C(O)CO)n1cnc2c(=S)nc[nH]c21 (configuration not stated)  P388 leukemia ip, CD2F1 mice, survival T/C            No

---

System: P388 leukemia ip, CD2F1 mice, survival T/C
Experiment: NCI In Vivo Anticancer Drug Screen. Data for tumor model P388 Leukemia (intraperitoneal) in CD2F1 (CDF1) mice
Details: endpoint: median survival time; dose: 15.0 mg/kg/injection; schedule: Q01DX005 (ip); vehicle: Klucel (hydroxypropylcellulose) (HPC); higher = longer survival
Inconclusive results and toxic doses are left out.
Experimental Endpoint: T/C

Compound	Recorded Result
CN(C)c1ccc2[nH]cc(C(=O)O)c(=O)c2c1	102 % of control
C#C/C=C/CC1OC(C(Br)CC)CC(OC(C)=O)C(Cl)CC1Cl (stereo unspecified)	100 % of control
N#CC(=O)Nc1ccc(Cl)c(Cl)c1	99 % of control
CC1(C)CCC2(C(=O)O)CCC3(C)C(=CCC4C5(C)CCC(OC6OC(CO)C(O)C(OC7OC(CO)C(O)C(O)C7O)C6OC6OC(CO)C(O)C(O)C6O)C(C)(C)C5CCC43C)C2C1 (stereo unspecified)	88 % of control
Nc1nc(N)c2nc(SCc3ccc(Cl)cc3)c(N)nc2n1	88 % of control
CCOC(=O)/C=C1\SC(C)(C)C1NC(=O)OCc1ccccc1 (stereo unspecified)	94 % of control

---

System: P388 leukemia ip, CD2F1 mice, survival T/C
Assay: NCI In Vivo Anticancer Drug Screen. Data for tumor model P388 Leukemia (intraperitoneal) in CD2F1 (CDF1) mice
Conditions: endpoint: median survival time; dose: 6.25 mg/kg/injection; schedule: Q01DX009 (ip); vehicle: saline; higher = longer survival
Toxic doses and inconclusive results are not listed.
Experimental Endpoint: T/C

> print(dat)
                                smiles.repr   recorded.result
1  CCCCCCCCCC[CH2][Sn]([CH2]CCCCCCCCCC)([CH2]CCCCCCCCCC)[CH2]CCCCCCCCCC   99 % of control
2                c1ccc(Nc2nnnn2C2CCCCC2)cc1  101 % of control
3              O/N=C/C=N/O.O/N=C/C=N/O.[Ni]   97 % of control
4                   COc1ccc2[nH]c(C)cc2c1CN  101 % of control
5                   O=C1C=C(NCc2ccccc2)CCC1  100 % of control
6   N=C(N)c1ccc(N=C(N)Nc2ccc(C(=N)N)cc2)cc1   95 % of control
